- procedureText: Plasma pharmacokinetics after single oral dose in female CD-1 mice
- Type: in vivo
- conditionDetails: single p.o. dose 10 mg/kg, female CD-1 mice, plasma
recordedMetric: T1/2 (elimination half-life) (h)

[
  {
    "compound": "[2H]c1nc([2H])n(C2CCC(C)(C)C(/C=C/C(C)=C/C=C/C(C)=C/C(=O)Nc3ccc(F)cc3)=C2C)c1[2H] (racemic)",
    "recordedResult": 8.39
  },
  {
    "compound": "[2H]c1c([2H])c(NC(=O)/C=C(C)/C=C/C=C(C)/C=C/C2=C(C)C([2H])(n3ccnc3)CCC2(C)C)c([2H])c([2H])c1F (racemic)",
    "recordedResult": 10.20
  },
  {
    "compound": "[2H]c1nc([2H])n(C2([2H])CCC(C)(C)C(/C=C/C(C)=C/C=C/C(C)=C/C(=O)Nc3c([2H])c([2H])c(F)c([2H])c3[2H])=C2C)c1[2H] (racemic)",
    "recordedResult": 10.28
  }
]

* * *

- Test system: MCF7
- procedureText: MTT antiproliferative assay, MCF7 non-TNBC cells
- Type: cell-based
- conditionDetails: Homo sapiens, mean of three independent experiments
recordedMetric: GI50 (nM)

Answered cases to consult:
[
  {
    "molecule": "[2H]C1(n2ccnc2)CCC(C)(C)C(/C=C/C(C)=C/C=C/C(C)=C/C(=O)Nc2ccc(F)cc2)=C1C (racemic) [Compound 4]",
    "targetOfAssay": "MCF7",
    "unitOfMeasure": "nM",
    "GI50": 230
  },
  {
    "molecule": "CC(=O)O[C@H]1C(=O)[C@@]2(C)[C@H]([C@H](OC(=O)c3ccccc3)[C@]3(O)C[C@H](OC(=O)[C@H](O)[C@@H](NC(=O)c4ccccc4)c4ccccc4)C(C)=C1C3(C)C)[C@]1(OC(C)=O)CO[C@@H]1C[C@@H]2O [Paclitaxel, paclitaxel, reference compound]",
    "targetOfAssay": "MCF7",
    "unitOfMeasure": "nM",
    "GI50": 60
  }
]

I. [2H]c1nc([2H])n(C2([2H])CCC(C)(C)C(/C=C/C(C)=C/C=C/C(C)=C/C(=O)Nc3c([2H])c([2H])c(F)c([2H])c3[2H])=C2C)c1[2H] (racemic) [Compound 9]
II. [2H]c1c([2H])c(NC(=O)/C=C(C)/C=C/C=C(C)/C=C/C2=C(C)C([2H])(n3ccnc3)CCC2(C)C)c([2H])c([2H])c1F (racemic) [Compound 8]
Looking at I and II , which one comes out lower in GI50 terms? API: response body contains the label of the selected item. I
(I: 220 nM, II: 330 nM)
